# Assay Remarks: Stability of ratio of the mixture of desloratadine polymorphic forms on storage (XRPD)
# Assay type: physicochemical
# Test Parameters: 25° C., 60% RH; 2 weeks
molecules and their reported Form 2 (%)

{"columns": ["Molecule", "Form 2 (%)"],
 "data": [
  ["Clc1ccc2c(c1)CCc1cccnc1C2=C1CCNCC1 [Example 1 of Stability Tests, desloratadine]", "47%"],
  ["Clc1ccc2c(c1)CCc1cccnc1C2=C1CCNCC1 [Example 2 of Stability Tests, desloratadine]", "39%"],
  ["Clc1ccc2c(c1)CCc1cccnc1C2=C1CCNCC1 [Example 3 of Stability Tests, desloratadine]", "26%"],
  ["Clc1ccc2c(c1)CCc1cccnc1C2=C1CCNCC1 [Example 4 of Stability Tests, desloratadine]", "20%"]
]}

Where these numbers come from: patent US20060223841A1
